# Experimental target: Luciferin 4-monooxygenase (Photinus pyralis)
# Protocol notes: CCTE_Simmons_QuantiLum_inhib_2: CCTE's Firefly Luciferase Inhibition Assay, Simmons Lab (AID 2283767)
Inconclusive results are not listed. Activity calls are given as the source filed them. The calls were made as follows: active = hit-call score of the fitted dose curve at least 0.9, where 1 is the maximum; inconclusive = response in the unintended direction; inactive = score below 0.9.
Mark one answer only. Choices: active, inactive

Answered examples (3):
• CCCCC(CC)COC(=O)C=Cc1ccc(OC)cc1 (centres undefined) = inactive
• COc1ccc(C(=O)c2ccccc2O)c(O)c1 = inactive
• Cc1cc(C)c(S(=O)(=O)O)cc1N=Nc1cc(S(=O)(=O)O)c2ccccc2c1O = active

Now consider the entry below.
Task: What did this assay record as the result for `Oc1cccc2ccccc12` ?
Output: active

FYI, the data here is from PubChem BioAssay (EPA / NIEHS).
